src = patent US11266643B2

# Target under test: human PD-L1 (Homo sapiens (Human), UniProt Q9NZQ7)
# Sequence (Q9NZQ7 19-239): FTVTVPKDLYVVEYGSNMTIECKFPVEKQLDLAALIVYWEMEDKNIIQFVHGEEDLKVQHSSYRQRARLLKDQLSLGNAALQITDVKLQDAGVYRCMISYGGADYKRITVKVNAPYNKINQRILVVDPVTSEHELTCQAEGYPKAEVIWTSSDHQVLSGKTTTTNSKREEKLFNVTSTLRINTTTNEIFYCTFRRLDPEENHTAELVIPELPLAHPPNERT
# Method: Enzyme-Linked Immunosorbent Assay (ELISA), PD-1/PD-L1 binding
# Condition: PD-1/PD-L1 ELISA, human PD-L1 coated plates, Table 1
pIC50: −log10 of the molar value.
Property measured: pIC50

>>> observed_value("COc1cc(-c2cccc(-c3cccc(NC(=O)c4c[nH]c(=O)n(C)c4=O)c3C)c2C)cc(F)c1CN(C)C")
"> 8.00"
>>> observed_value("COc1cc(-c2cccc(-c3cccc(NC(=O)c4ccccn4)c3C)c2C)cc(F)c1CN1CCOC[C@H]1CO")
"6.00 to 8.00"
>>> observed_value("COc1cc(-c2cccc(-c3cccc(NC(=O)c4ccc(CC(=O)O)cn4)c3C)c2C)cc(F)c1CN")
"6.00 to 8.00"
>>> observed_value("COc1cc(-c2cccc(-c3cccc(NC(=O)C4CNCCO4)c3C)c2C)cc(F)c1CN (stereo not shown)")
"6.00 to 8.00"
>>> observed_value("COc1cc(-c2cccc(-c3cccc(NC(=O)C4CCCNC4)c3C)c2C)cc(F)c1CN (stereo not shown)")
"5.00 to 6.00"
>>> observed_value("COc1cc(-c2cccc(-c3cccc(Nc4nccc5nccnc45)c3C)c2C)cc(F)c1CNCC(=O)O")
"> 8.00"
>>> observed_value("COc1cc(-c2cccc(-c3cccc(NC(=O)c4cncn(C)c4=O)c3C)c2C)cc(F)c1CNCC(=O)O")
"> 8.00"

* * *

# Target under test: human PD-L1 (Homo sapiens (Human))
# Method: Enzyme-Linked Immunosorbent Assay (ELISA), PD-1/PD-L1 binding
# Condition: PD-1/PD-L1 ELISA, human PD-L1 coated plates, Table 1
Property measured: IC50

>>> observed_value("COc1cc(-c2cccc(-c3cccc(Nc4nccn5ccnc45)c3C)c2C)cc(F)c1CN1CC(C(=O)O)C1")
"10 to 1000 nM"
>>> observed_value("COc1cc(-c2cccc(-c3cccc(NC(=O)c4cccn(C)c4=O)c3C)c2C)cc(F)c1CNCCS(=O)(=O)O")
"< 10 nM"
>>> observed_value("COc1cc(-c2cccc(-c3cccc(NC(=O)c4c[nH]c(=O)n(C)c4=O)c3C)c2C)cc(F)c1CN1CCC2(C1)NC(=O)NC2=O (stereo not shown)")
"10 to 1000 nM"
>>> observed_value("COc1cc(-c2cccc(-c3cccc(NC(=O)c4cncn(C)c4=O)c3C)c2C)cc(F)c1CNCC(C)(C)O")
"< 10 nM"
>>> observed_value("COc1cc(-c2cccc(-c3cccc(NC(=O)c4c[nH]c(=O)n(C)c4=O)c3C)c2C)cc(F)c1CN(C)CCC(=O)O")
"10 to 1000 nM"
>>> observed_value("COc1cc(-c2cccc(-c3cccc(NC(=O)c4cccn(C)c4=O)c3C)c2C)cc(F)c1CNCC(=O)O")
"< 10 nM"
>>> observed_value("COc1cc(-c2cccc(-c3cccc(NC(=O)c4ccccn4)c3C)c2C)cc(F)c1CN1CCCC[C@@H]1C(=O)O")
"1000 to 10000 nM"

* * *

# Target under test: human PD-L1 (Homo sapiens (Human), UniProt Q9NZQ7)
# Method: Enzyme-Linked Immunosorbent Assay (ELISA), PD-1/PD-L1 binding
# Condition: plate-coated human PD-L1, biotinylated Human PD-1, absorbance at 450 nm
Property measured: IC50

>>> observed_value("COc1cc(-c2cccc(-c3cccc(NC(=O)c4c[nH]c(=O)n(C)c4=O)c3C)c2Cl)cc(F)c1CN[C@H]1CCOC[C@H]1O [Example 2.034]")
"< 10 nM"
>>> observed_value("COc1cc(-c2cccc(-c3cccc(NC(=O)c4cn(C)c(=O)n(C)c4=O)c3Cl)c2C)cc(F)c1CN[C@H]1CCOC[C@@H]1O [Example 2.077]")
"< 10 nM"
>>> observed_value("COc1cc(-c2cccc(-c3cccc(NC(=O)c4cn(C)c(=O)n(C)c4=O)c3C)c2Cl)cc(F)c1CN[C@H]1CCOC[C@H]1OC [Example 2.024]")
"< 10 nM"
